Please go through the items and note down their IC50, S-Fuse neutralization of live virus.
# test system: Spike protein of SARS-CoV-2 strain D614G (hCoV-19/France/GE1973/2020) (SARS-CoV-2, UniProt P0DTC2 14-1273)
# assay text: cell-based or functional assay
Don't forget the unit after the number, please.

- SPK002 antibody (parental version Cv2.3194 described in WO 2022/228827) (antibody, V domains shown) VH: EVQLVESGGGLIQPGGSLRLSCAASGITVTSNYMSWVRQAPGKGLEWVSVIYPGGSTFYADSVKGRFTISRDNSKNTLYLQMNSLRAEDTAVYYCARDLVVYGMDVWGQGTTVTVS VL: EIVLTQSPGTLSLSPGERATLSCRASQSVSSSYLAWYQQKPGQAPRLLIYGASSRATGIPGRFSGSGSGTDFTLTISRLEPEDFAIYYCQQGVTFGGGTKVEIK: 0.09 µg/mL

Consider the additional binder presented here.
Exam item: Give the reported value of IC50, S-Fuse neutralization of live virus for this record: SPK002M B2 antibody (antibody, human IgG1, kappa, V domains shown) VH: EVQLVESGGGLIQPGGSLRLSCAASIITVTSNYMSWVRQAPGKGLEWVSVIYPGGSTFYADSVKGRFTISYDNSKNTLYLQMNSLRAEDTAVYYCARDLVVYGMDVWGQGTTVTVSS VL: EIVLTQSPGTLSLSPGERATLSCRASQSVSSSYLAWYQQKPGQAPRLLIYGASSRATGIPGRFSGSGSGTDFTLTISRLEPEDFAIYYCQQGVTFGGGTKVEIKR
Marked response: 0.09 µg/mL
